experimentalTarget: human TYK2 (JH2domain-pseudokinase) (Homo sapiens (Human), UniProt P29597)
Sequence (P29597 556-888): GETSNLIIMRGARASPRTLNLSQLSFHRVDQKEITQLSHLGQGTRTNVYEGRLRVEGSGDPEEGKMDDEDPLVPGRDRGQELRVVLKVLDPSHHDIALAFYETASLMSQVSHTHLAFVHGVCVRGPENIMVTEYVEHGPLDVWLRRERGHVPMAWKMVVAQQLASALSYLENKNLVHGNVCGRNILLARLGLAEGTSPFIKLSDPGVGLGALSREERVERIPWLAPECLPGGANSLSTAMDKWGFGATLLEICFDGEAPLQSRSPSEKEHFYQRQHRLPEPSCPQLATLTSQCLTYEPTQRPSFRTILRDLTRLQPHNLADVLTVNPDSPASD
protocolText: TYK2 JH2 Domain Binding Assay (KINOMEscan)
readoutKind: Kd

// query Which Kd reading was recorded for the compound CNc1cc(Nc2cccn(C3CCN(C)CC3(F)F)c2=O)nc2c(C(=O)NC3CC3)cnn12 (stereo not drawn) ?
// result 0.2 to 1 nM

// query Now the compound CNc1cc(Nc2cccn(-c3ncc(C)s3)c2=O)nc2c(C(=O)N[C@H]3CC[C@@H]3O)cnn12 [I-1071]
// result 1 to 10 nM

// query Now the compound `CNc1cc(Nc2cccn(C3CCCCC3)c2=O)nc2c(C(=O)N[C@@H]3CC[C@H]3O)cnn12`
// result < 0.2 nM

###

This section presents molecules with their documented Kd values.
experimentalTarget: human TYK2 (JH2domain-pseudokinase) (Homo sapiens (Human), UniProt P29597)
protocolText: TYK2 JH2 Domain Binding Assay (KINOMEscan)
Procedure: Binding constants for compounds of the present invention against the JH2 domain were determined by the following protocol for a KINOMEscan® assay (DiscoveRx). […] The TYK2 (JH2domain-pseudokinase) fusion protein was labeled with a chimeric double-stranded DNA tag containing the NFkB binding site (5′-[…]-3′) fused to an amplicon for qPCR readout, which was added directly to the expression extract (the final concentration of DNA-tag in the binding reaction is 0.1 nM). […]

# annotated cases, reported Kd shown
> print(dat)
                                   molecule                        experimentaltarget  readoutkind      result
1  CNc1cc(Nc2cccn(C3CC4(COC4)C3)c2=O)nc2c(C(=O)N[C@@H]3C[C@@H]3F)cnn12  human TYK2 (JH2domain-pseudokinase) (Homo sapiens (Human), UniProt P29597)           Kd    < 0.2 nM
2  CNc1cc(-c2cn(C3CCOCC3)c3ncccc23)nc2c(C(=O)N[C@H]3CCC[C@]3(C)O)cnn12 [I-1336]  human TYK2 (JH2domain-pseudokinase) (Homo sapiens (Human), UniProt P29597)           Kd  1 to 10 nM

Please find the next molecule below.
// query Which Kd reading was recorded for the molecule `CNc1cc(Nc2cccn([C@H]3CCC[C@H](OC)C3)c2=O)nc2c(C(=O)NCC3(CO)CC3)cnn12` ?
// result < 0.2 nM

###

experimentalTarget: human TYK2 (JH2domain-pseudokinase) (Homo sapiens (Human))
protocolText: TYK2 JH2 Domain Binding Assay (KINOMEscan)
Protocol: Binding constants for compounds of the present invention against the JH2 domain were determined by the following protocol for a KINOMEscan® assay (DiscoveRx). […] The TYK2 (JH2domain-pseudokinase) fusion protein was labeled with a chimeric double-stranded DNA tag containing the NFkB binding site (5′-[…]-3′) fused to an amplicon for qPCR readout, which was added directly to the expression extract (the final concentration of DNA-tag in the binding reaction is 0.1 nM). […]
pKd: −log10 of the molar value.
readoutKind: pKd

# annotated cases, reported pKd shown
> print(dat)
                                    compound        result
 1  CNc1cc(Nc2cccn([C@@H]3CCCOC3)c2=O)nc2c(C(=O)NCC(C)(C)CO)cnn12 [I-598]        > 9.70
 2  CNc1cc(Nc2cccn([C@@H]3CCCOC3)c2=O)nc2c(C(=O)N[C@@H]3CCC[C@@H](O)C3)cnn12 [I-735]        > 9.70
 3  CNc1cc(Nc2cccn(-c3cnn(C)c3)c2=O)nc2c(C(=O)N[C@H]3C[C@H]3F)cnn12 [I-296]        > 9.70
 4  CNc1cc(-c2cn(C(C)C)c3ncc(C)cc23)nc2c(C(=O)N[C@H]3C[C@H]3F)cnn12 [I-257]  9.00 to 9.70
 5  CNc1cc(Nc2cccn(C3CCOCC3)c2=O)nc2c(C(=O)N[C@H]3CCC[C@H](O)C3)cnn12 [I-1225]        > 9.70
 6  CNc1cc(-c2cn([C@@H]3CCN(CCF)C3)c3ncccc23)nc2c(C(=O)NC3CC3)cnn12 [I-1367]        > 9.70
 7  CNc1cc(-n2cc(N3CCOCC3)c3ncccc32)nc2c(C(=O)N[C@H]3C[C@H]3F)cnn12 [I-555]  8.00 to 9.00
 8  CNc1cc(Nc2cccn([C@H]3CC[C@@](C)(O)CC3)c2=O)nc2c(C(=O)N[C@H]3C[C@H]3F)cnn12 [I-370]        > 9.70
 9  CNc1cc(-c2cn(CCN3CCOCC3)c3ncccc23)nc2c(C(=O)N[C@H]3COC[C@H]3O)cnn12 [I-856]  9.00 to 9.70
10  CNc1cc(Nc2cccnc2C(C)(F)F)nc2c(C(=O)N[C@H]3C[C@H]3F)cnn12 [I-300]  9.00 to 9.70

// query Which pKd reading was recorded for the compound CNc1cc(Nc2cccnc2OC)nc2c(C(=O)NC(C)(C)C#N)cnn12 [I-476] ?
// result > 9.70

// query Now the compound [2H]C([2H])([2H])Nc1cc(Nc2cccnc2OC2CC2)nc2c(C(=O)N[C@@H]3C[C@@H]3F)cnn12 (stereo in doubt) [I-375]
// result > 9.70

###

This section presents molecules with their documented Kd values.
experimentalTarget: human TYK2 (JH2domain-pseudokinase) (Homo sapiens (Human))
protocolText: TYK2 JH2 Domain Binding Assay (KINOMEscan)

> print(dat)
                                   molecule  readoutkind          result
1  CNc1cc(Nc2cccn(-c3nn(C)cc3C)c2=O)nc2c(C(=O)N[C@H]3C[C@H]3F)cnn12           Kd  200 to 1000 pM

Please find the next molecule below.
// query Which Kd reading was recorded for the molecule CNc1cc(Nc2cccnc2OC)nc2c(C(=O)N[C@@H]3COC[C@@H]3O)cnn12 [I-614] ?
// result 1000 to 10000 pM

###

This section presents compounds with their documented IC50 values.
experimentalTarget: JAK2/JAK2 homdimeric complex (Homo sapiens (Human), UniProt O60674)
Sequence (O60674 whole entry): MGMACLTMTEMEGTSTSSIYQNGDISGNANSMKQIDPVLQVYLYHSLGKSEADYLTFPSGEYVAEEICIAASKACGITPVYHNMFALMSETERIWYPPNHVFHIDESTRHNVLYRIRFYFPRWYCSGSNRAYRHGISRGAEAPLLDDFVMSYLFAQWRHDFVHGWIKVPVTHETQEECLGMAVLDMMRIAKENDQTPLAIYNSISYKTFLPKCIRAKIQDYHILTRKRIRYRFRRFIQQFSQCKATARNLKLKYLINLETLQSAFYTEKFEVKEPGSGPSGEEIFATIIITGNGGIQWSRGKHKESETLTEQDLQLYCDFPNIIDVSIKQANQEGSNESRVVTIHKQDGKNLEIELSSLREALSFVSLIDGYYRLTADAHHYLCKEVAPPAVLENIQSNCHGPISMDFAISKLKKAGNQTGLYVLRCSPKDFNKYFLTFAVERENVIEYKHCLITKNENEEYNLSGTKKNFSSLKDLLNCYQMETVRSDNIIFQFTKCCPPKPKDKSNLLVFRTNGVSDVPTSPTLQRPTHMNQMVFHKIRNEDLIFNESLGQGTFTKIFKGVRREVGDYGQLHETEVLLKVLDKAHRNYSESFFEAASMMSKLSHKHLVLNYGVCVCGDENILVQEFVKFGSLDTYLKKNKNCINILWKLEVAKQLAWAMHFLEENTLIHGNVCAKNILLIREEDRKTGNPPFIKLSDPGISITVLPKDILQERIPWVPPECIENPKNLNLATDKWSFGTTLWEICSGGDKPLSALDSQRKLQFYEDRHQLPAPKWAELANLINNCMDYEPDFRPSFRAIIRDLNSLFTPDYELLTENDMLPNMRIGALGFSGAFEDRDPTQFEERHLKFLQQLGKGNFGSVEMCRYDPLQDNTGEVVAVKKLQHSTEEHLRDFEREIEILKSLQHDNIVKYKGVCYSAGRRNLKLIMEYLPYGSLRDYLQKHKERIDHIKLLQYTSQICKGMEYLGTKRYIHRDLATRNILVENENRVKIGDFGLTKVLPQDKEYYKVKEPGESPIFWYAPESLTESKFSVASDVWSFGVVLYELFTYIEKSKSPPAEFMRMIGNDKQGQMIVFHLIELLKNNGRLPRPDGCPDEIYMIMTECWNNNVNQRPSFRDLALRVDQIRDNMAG
Sequence (P32927 17-897 partner): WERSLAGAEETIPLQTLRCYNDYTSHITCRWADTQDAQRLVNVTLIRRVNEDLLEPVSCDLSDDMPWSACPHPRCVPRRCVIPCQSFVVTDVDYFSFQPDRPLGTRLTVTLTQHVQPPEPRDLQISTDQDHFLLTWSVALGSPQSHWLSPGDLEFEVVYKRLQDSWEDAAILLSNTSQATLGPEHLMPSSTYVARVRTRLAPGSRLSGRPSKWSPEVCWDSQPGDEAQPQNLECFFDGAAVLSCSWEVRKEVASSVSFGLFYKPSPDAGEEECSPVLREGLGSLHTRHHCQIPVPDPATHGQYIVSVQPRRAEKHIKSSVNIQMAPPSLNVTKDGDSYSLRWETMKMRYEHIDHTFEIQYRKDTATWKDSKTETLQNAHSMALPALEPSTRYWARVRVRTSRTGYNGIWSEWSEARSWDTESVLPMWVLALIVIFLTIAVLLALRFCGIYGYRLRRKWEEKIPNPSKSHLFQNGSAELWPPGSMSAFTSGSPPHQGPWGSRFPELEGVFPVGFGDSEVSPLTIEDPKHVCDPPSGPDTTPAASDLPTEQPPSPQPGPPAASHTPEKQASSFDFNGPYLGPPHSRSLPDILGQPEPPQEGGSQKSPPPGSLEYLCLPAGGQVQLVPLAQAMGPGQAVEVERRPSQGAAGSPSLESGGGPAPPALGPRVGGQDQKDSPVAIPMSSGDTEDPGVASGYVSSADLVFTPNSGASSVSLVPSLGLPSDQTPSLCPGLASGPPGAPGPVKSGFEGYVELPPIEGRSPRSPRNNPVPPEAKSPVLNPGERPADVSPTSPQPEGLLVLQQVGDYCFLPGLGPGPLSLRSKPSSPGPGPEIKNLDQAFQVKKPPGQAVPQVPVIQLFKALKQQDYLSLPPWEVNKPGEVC
protocolText: GM-CSF Induced pSTAT5 in Human PBMC
Format: cell-based
conditionLabel: GM-CSF 5 ng/mL for 20 minutes, pSTAT5 by MSD, read-out: PBMC_GMCSF_pSTAT5 IC50

# annotated cases, reported IC50 shown
> print(dat)
                                   compound  readoutkind     result
1  CNc1cc(Nc2cccn([C@H]3CC[C@](C)(OC)CC3)c2=O)nc2c(C(=O)N[C@@H]3CC[C@H]3OC)cnn12 [I-959]         IC50    > 50 µM
2  CNc1cc(Nc2cccnc2OC)nc2c(C(=O)NC3CCC3O)cnn12 (centres unmarked) [I-390]         IC50    > 50 µM
3  CNc1cc(Nc2cc(Cl)cn(-c3cc(C)n(C)n3)c2=O)nc2c(C(=O)N[C@H]3C[C@H]3F)cnn12 [I-315]         IC50  > 12.5 µM
4  CNc1cc(-c2cn(CCN3CCCCC3)c3ncccc23)nc2c(C(=O)N[C@H]3C[C@H]3F)cnn12 [I-585]         IC50  > 12.5 µM
5  CNc1cc(Nc2cccnc2OC2CC2)nc2c(C(=O)N[C@H]3C[C@H]3F)cnn12 [I-217]         IC50    > 50 µM
6  CNc1cc(Nc2cccn(C3CCOCC3)c2=O)nc2c(C(=O)NC3CC3)cnn12 [I-329]         IC50   > 2.5 µM

// query Which IC50 reading was recorded for the compound CNC(=O)c1nscc1Nc1cc(NC)n2ncc(C(=O)N[C@@H]3C[C@@H]3F)c2n1 [I-914] ?
// result > 50 µM

// query Now the compound CNc1cc(Nc2cccn([C@H]3CC[C@H](OC)CC3)c2=O)nc2c(C(=O)N[C@@H]3CC[C@H]3OC)cnn12 [I-1378]
// result > 50 µM

// query Now the compound CNc1cc(Nc2cccn(-c3ncco3)c2=O)nc2c(C(=O)NC3CC3)cnn12 [I-715]
// result > 2.5 µM

// query Now the compound CNc1cc(Nc2cc(C)cc(F)c2)nc2c(C(=O)NC3CC3)cnn12 [I-6]
// result > 50 µM

// query Now the compound CNc1cc(Nc2cccn(-c3ncc(OC)cc3F)c2=O)nc2c(C(=O)N[C@H]3C[C@H]3F)cnn12 [I-673]
// result > 50 µM

// query Now the compound CNc1cc(Nc2cccn([C@@H]3CCCN(CCF)C3)c2=O)nc2c(C(=O)N[C@@H]3CC[C@H]3OC)cnn12 [I-1095]
// result > 50 µM

// query Now the compound CNc1cc(Nc2cccn(-c3nc(C)co3)c2=O)nc2c(C(=O)N[C@H]3C[C@H]3F)cnn12 [I-369]
// result > 50 µM
